Target entity: T1, human prostate specific membrane antigen (PSMA), full-length, on cells (human, UniProt Q04609 1-750)
T1 construct: also called huPSMA; human PSMA
T1 sequence (Q04609 whole entry): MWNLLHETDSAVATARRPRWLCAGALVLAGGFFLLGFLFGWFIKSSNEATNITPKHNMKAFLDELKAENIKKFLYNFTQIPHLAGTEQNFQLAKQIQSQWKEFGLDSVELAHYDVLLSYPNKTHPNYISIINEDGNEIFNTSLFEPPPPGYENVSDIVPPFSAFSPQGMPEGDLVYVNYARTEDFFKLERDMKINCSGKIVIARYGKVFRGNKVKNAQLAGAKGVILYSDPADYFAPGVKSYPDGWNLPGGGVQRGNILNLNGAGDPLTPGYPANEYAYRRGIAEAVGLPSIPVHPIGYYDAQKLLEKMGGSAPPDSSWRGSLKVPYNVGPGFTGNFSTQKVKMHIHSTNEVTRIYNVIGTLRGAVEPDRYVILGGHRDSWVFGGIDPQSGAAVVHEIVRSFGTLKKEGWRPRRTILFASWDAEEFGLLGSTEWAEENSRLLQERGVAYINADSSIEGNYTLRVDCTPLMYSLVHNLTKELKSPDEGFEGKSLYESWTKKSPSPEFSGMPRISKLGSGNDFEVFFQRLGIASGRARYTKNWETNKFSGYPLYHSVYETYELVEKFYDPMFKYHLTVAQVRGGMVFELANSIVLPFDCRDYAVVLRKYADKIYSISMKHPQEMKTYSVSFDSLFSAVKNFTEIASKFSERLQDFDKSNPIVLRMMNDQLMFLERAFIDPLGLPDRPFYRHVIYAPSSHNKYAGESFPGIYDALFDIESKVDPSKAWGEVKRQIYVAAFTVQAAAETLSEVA
Assay comment: FMAT direct cell binding, human PSMA-CHO cells
pEC50: −log10 of the molar value.
The following binders are shown together with reported pEC50 values.
Quantity: pEC50

1) 1.11-6GS-2.1 (bispecific antibody, linker (G4S)6; also called 1.11-2.1) EVQLLESGGGLVQPGGSLRLSCAASGFSFSSYALSWVRQAPGKGLEWVSSIGENNDTTDYADNVKGRFTISRDNSKNTLYLQMNSLRVEDTAVYYCVKDGVHWGQGTLVTVSSGGGGSGGGGSGGGGSGGGGSGGGGSGGGGSEVQLVESGGGVVQPGRSLRLSCAASGFSFSGYGMHWVRQAPGKGLEWVAYISYDGSNKYYADSVKGRFTISRDNSKNTLYLQMNSLRAEDTAVYYCAKDPAWGLRLGESSSYDFDIWGQGTMVTVSS = 9.54
2) 1.18-6GS-2.1 (bispecific antibody, linker (G4S)6) EVQLLESGGGLVQPGGSLRLSCAASGFSFSSYALSWVRQAPGKGLEWVSSIGENNATTDYAASVKGRFTISRDNSKNTLYLQMNSLRVEDTAVYYCVKDGVHWGQGTLVTVSSGGGGSGGGGSGGGGSGGGGSGGGGSGGGGSEVQLVESGGGVVQPGRSLRLSCAASGFSFSGYGMHWVRQAPGKGLEWVAYISYDGSNKYYADSVKGRFTISRDNSKNTLYLQMNSLRAEDTAVYYCAKDPAWGLRLGESSSYDFDIWGQGTMVTVSS = 9.53
3) 1.11-6GS-2.22 (bispecific antibody, linker (G4S)6; also called 1.11-2.22; 1.11-6GS-2.22His) EVQLLESGGGLVQPGGSLRLSCAASGFSFSSYALSWVRQAPGKGLEWVSSIGENNDTTDYADNVKGRFTISRDNSKNTLYLQMNSLRVEDTAVYYCVKDGVHWGQGTLVTVSSGGGGSGGGGSGGGGSGGGGSGGGGSGGGGSEVQLVESGGGVVQPGRSLRLSCAASGFSFSGYGTHWVRQAPGKGLEWVAYISYDGSNKYYAAPVKGRFTISRDNSKNTLYLQMNSLRAEDTAVYYCAKDAAWGLRLGESSSYDFDIWGQGTMVTVSS = 9.66
4) 1.11-6GS-2.17 (bispecific antibody, linker (G4S)6) EVQLLESGGGLVQPGGSLRLSCAASGFSFSSYALSWVRQAPGKGLEWVSSIGENNDTTDYADNVKGRFTISRDNSKNTLYLQMNSLRVEDTAVYYCVKDGVHWGQGTLVTVSSGGGGSGGGGSGGGGSGGGGSGGGGSGGGGSEVQLVESGGGVVQPGRSLRLSCAASGFSFSGYGMHWVRQAPGKGLEWVAYISYDASNKYYADNVKGRFTISRDNSKNTLYLQMNSLRAEDTAVYYCAKDPAWGLRLGESSSYDFDIWGQGTMVTVSS = 9.55
5) 1.16-6GS-2.1 (bispecific antibody, linker (G4S)6) EVQLLESGGGLVQPGGSLRLSCAASGFSFSSYALSWVRQAPGKGLEWVSSIGENNHTTDYADTVKGRFTISRDNSKNTLYLQMNSLRVEDTAVYYCVKDGVHWGQGTLVTVSSGGGGSGGGGSGGGGSGGGGSGGGGSGGGGSEVQLVESGGGVVQPGRSLRLSCAASGFSFSGYGMHWVRQAPGKGLEWVAYISYDGSNKYYADSVKGRFTISRDNSKNTLYLQMNSLRAEDTAVYYCAKDPAWGLRLGESSSYDFDIWGQGTMVTVSS = 9.51
6) 1.16-6GS-2.22 (bispecific antibody, linker (G4S)6) EVQLLESGGGLVQPGGSLRLSCAASGFSFSSYALSWVRQAPGKGLEWVSSIGENNHTTDYADTVKGRFTISRDNSKNTLYLQMNSLRVEDTAVYYCVKDGVHWGQGTLVTVSSGGGGSGGGGSGGGGSGGGGSGGGGSGGGGSEVQLVESGGGVVQPGRSLRLSCAASGFSFSGYGTHWVRQAPGKGLEWVAYISYDGSNKYYAAPVKGRFTISRDNSKNTLYLQMNSLRAEDTAVYYCAKDAAWGLRLGESSSYDFDIWGQGTMVTVSS = 9.65
